Cited source for all entries: the Immune Epitope Database (IEDB)

Biological target: HLA-B*15:42
Test: IEDB peptide-MHC binding, purified MHC/competitive/fluorescence; filed as Kd, often an IC50 or EC50 that approximates it; bounds were set here for any values at or beyond the usual limits of such assays
Details: source organism: Homo sapiens
pKd: −log10 of the molar value.

seq: TFMDHVLRY
system-under-test: HLA-B*15:42
pKd: ≤ 5.30

* * *

Target: HLA-B*46:01
Assay: IEDB peptide-MHC binding, purified MHC/competitive/fluorescence; filed as Kd, often an IC50 or EC50 that approximates it; bounds were set here for any values at or beyond the usual limits of such assays
Conditions: source organism: Yellow fever virus
pKd: −log10 of the molar value.

seq: TAVDFGNSY
pKd: 6.93
